FYI, the data here is from ChEMBL document CHEMBL3044642.

Answer each item with its documented MIC.
test system: Mycolicibacterium smegmatis; assay: Antimycobacterial activity against Mycobacterium smegmatis str. MC2 155 after 24 hr by two-fold serial micro broth dilution method; format: functional; conditions: str. MC2 155, 24 h
Reply numerically in µg/mL, unit not repeated.

Record O=C(O)c1cn(C2CC2)c2cc(N3CCNCC3)c(F)cc2c1=O , field MIC: 0.78

Entry under test: CCn1cc(C(=O)O)c(=O)c2ccc(C)nc21 . Its MIC was 0.78

Briefly, MIC measured for CC1(C)CCC[C@@]2(C)C(CO)[C@H]3CC[C@H]2C3C1 (stereo not given in full) [HYDROXY JUNEPENE] : 62.5

Sure, the documented MIC for CCCCC#CCCCC#CCCCCO is 125

get_value(item= CCn1cc(C(=O)O)c(=O)c2cc(F)c(N3CCNC(C)C3)c(F)c21 (stereo not given) , readout=MIC) returns 0.78

###

system: Mycolicibacterium smegmatis; experiment: Antimycobacterial activity against quinolones and ciprofloxacin-resistant Mycobacterium smegmatis MDRQ after 24 hr by two-fold serial micro broth dilution method; format: functional
So I've got a bunch of compounds here, and I need their MIC values.
Numeric answer only, unit µg/mL assumed.

Simply: CCCCC#CCCCC#CCCCCO , Mycolicibacterium smegmatis, MIC = 250

The compound CCn1cc(C(=O)O)c(=O)c2ccc(C)nc21 , when measured on Mycolicibacterium smegmatis, yielded MIC of 50

MIC for Mycolicibacterium smegmatis with input O=C(O)c1cn(C2CC2)c2cc(N3CCNCC3)c(F)cc2c1=O equals 25
